Could you please report measured inhibition at 1 µM for the items listed next?
# Test target: Tyk2 (Homo sapiens)
# Construct: purchased Invitrogen
# Sequence (P29597 whole entry): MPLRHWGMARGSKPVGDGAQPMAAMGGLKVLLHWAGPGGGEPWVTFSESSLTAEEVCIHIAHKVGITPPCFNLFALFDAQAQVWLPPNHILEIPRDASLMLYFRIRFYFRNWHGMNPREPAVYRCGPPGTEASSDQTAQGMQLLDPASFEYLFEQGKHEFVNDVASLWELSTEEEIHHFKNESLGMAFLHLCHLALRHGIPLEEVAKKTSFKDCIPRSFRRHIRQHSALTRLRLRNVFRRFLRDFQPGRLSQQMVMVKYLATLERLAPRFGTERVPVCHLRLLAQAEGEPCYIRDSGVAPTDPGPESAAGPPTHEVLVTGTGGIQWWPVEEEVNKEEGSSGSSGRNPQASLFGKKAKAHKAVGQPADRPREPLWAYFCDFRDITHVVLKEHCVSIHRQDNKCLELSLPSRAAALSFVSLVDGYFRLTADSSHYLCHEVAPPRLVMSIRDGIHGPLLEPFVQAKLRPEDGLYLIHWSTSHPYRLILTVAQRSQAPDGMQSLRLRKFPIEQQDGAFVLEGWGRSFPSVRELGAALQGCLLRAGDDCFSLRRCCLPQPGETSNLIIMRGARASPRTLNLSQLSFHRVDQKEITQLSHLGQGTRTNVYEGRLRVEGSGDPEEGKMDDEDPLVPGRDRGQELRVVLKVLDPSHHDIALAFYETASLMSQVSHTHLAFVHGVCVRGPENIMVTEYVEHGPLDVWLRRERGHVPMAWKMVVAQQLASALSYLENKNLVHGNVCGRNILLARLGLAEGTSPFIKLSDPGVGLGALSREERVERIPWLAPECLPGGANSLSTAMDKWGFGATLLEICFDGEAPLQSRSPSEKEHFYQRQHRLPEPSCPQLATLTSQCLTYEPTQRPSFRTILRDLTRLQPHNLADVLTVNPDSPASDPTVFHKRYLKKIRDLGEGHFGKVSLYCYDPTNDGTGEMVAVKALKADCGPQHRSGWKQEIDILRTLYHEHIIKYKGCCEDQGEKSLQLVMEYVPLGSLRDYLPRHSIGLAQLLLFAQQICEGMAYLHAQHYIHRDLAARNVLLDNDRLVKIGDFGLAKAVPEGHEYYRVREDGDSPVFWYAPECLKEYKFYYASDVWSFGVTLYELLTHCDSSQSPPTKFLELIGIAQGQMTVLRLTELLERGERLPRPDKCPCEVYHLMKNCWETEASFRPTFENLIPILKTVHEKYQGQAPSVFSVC
# Experimental protocol: Tyk2 enzyme inhibition test (LANCE method)
# Type: biochemical
# Test context: test compound 1 μM; well without enzyme = 100% inhibition; read-out: Tyk2 enzyme inhibitory activity (%, 1 μM)
Lab book: enter the figure in %, no units written.

Q) Look up inhibition at 1 µM for this compound: Cn1nc(Nc2cc(N3CC[C@@](C#N)(C4CC4)C3=O)ccn2)cc1N1CCOCC1
A) 100

Q) // lookup inhibition at 1 µM for Cn1nc(Nc2cc(N3CC[C@@](C#N)(C4CC4)C3=O)ccn2)cc1C(N)=O
A) 102

Q) Give its inhibition at 1 µM value. Item: CC(=O)Nc1ccnc(Nc2cc(N3CC[C@@](C#N)(C4CC4)C3=O)ccn2)c1
A) 100

Q) Reported inhibition at 1 µM, compound CNC(=O)c1cc(Nc2cc(N3C(=O)[C@](C#N)(C4CC4)C[C@H]3C)ccn2)nn1C : ____
A) 106

Q) Entry under review: CC(C)(CO)n1cc(Nc2cc(N3CCC(C#N)(C4CC4)C3=O)ccn2)cn1 (centres unmarked) . Reported inhibition at 1 µM?
A) 90
